- assayTarget: Bromodomain-containing protein 4 (Homo sapiens) (UniProt O60885)
- conditionSet: Compound concentration 20.0 uM
Residues, ends and D or L forms follow the SMILES beside them. *: point of attachment. Cbz = O=C(OCc1ccccc1)*
Form field: ΔTm (one value per entry).
Reply with just the number (in °C).

Answered examples (4):
{"compound": "CCCCCCNC(=O)n1cc(Cl)c(=O)n(C(=O)OCC(C)C)c1=O", "assayTarget": "Bromodomain-containing protein 4 (Homo sapiens) (UniProt O60885)", "unitOfMeasurement": "°C", "ΔTm": -0.35}
{"compound": "CN(CCC(Oc1ccc(-c2ccccc2)cc1)c1ccc(F)cc1)CC(=O)O (configuration not stated)", "assayTarget": "Bromodomain-containing protein 4 (Homo sapiens) (UniProt O60885)", "unitOfMeasurement": "°C", "ΔTm": 2.4}
{"compound": "c1ccc(Cn2c(-c3ccc(OC[C@H](C4CCNCC4)n4c(-c5ccccc5)nc5ccccc54)cc3)nc3ccccc32)cc1", "assayTarget": "Bromodomain-containing protein 4 (Homo sapiens) (UniProt O60885)", "unitOfMeasurement": "°C", "ΔTm": -6.29}
{"compound": "O=CC1CCCN1C(=O)C1CCCN1C(=O)OCc1ccccc1 (stereo not drawn) (Cbz-Pro-Pro-aldehyde; configuration not given here)", "assayTarget": "Bromodomain-containing protein 4 (Homo sapiens) (UniProt O60885)", "unitOfMeasurement": "°C", "ΔTm": -1.06}

In: Entry CC(=O)N[C@@H](CC(=O)O)C(=O)N[C@@H](CCC(=O)O)C(=O)N[C@H](C(=O)N[C@@H](CC(=O)O)C(=O)CCl)C(C)C has what ΔTm?
Out: -2.64

In: And what about the compound CS(=O)(=O)c1ccc(Oc2cc(F)cc(C#N)c2)c2c1C(O)C(F)C2 (configuration not stated) ?
Out: -2.49
